TEST_DESCRIPTION: molar heat capacity at constant pressure
DETAILS: 350 K; 101.33 kPa; Crystal; Small sample (50 mg) DSC
In this section, each of the compounds is paired with its reported molar heat capacity at constant pressure.
Quick note: give the figure in J/K/mol, leave out the unit.

A selection of reference data follows.
O[C@H]1[C@H](O)[C@@H](O)[C@H](O)[C@@H](O)[C@H]1O [cis-1,2,3,5-trans-4,6-cyclohexanehexol]	263.15
OC[C@@H](O)[C@@H](O)CO [meso-1,2,3,4-butanetetrol]	195.43
OC[C@@H](O)[C@@H](O)[C@H](O)[C@H](O)CO [D-mannitol]	275.71

Now for another entry.
Reported molar heat capacity at constant pressure of OC[C@@H](O)C(O)[C@H](O)CO [D-arabitol] : 255.58

====

In this section, each of the molecules is paired with its reported molar heat capacity at constant pressure.
TEST_DESCRIPTION: molar heat capacity at constant pressure
DETAILS: 292.15 K; 101.33 kPa; Crystal; Small sample (50 mg) DSC
Quick note: give the figure in J/K/mol, leave out the unit.

A selection of reference data follows.
O[C@H]1[C@H](O)[C@@H](O)[C@H](O)[C@@H](O)[C@H]1O [cis-1,2,3,5-trans-4,6-cyclohexanehexol]	212.8
OC[C@@H](O)[C@H](O)[C@@H](O)CO [xylitol]	204.53
OC[C@@H](O)[C@@H](O)CO [meso-1,2,3,4-butanetetrol]	161.05
OC[C@@H](O)C(O)[C@H](O)CO [D-arabitol]	196.49

Reported molar heat capacity at constant pressure of OC[C@H](O)C(O)[C@@H](O)CO [L-(-)-arabitol] : 202.64

Reported molar heat capacity at constant pressure of OC[C@@H](O)[C@@H](O)[C@H](O)[C@H](O)CO [D-mannitol] : 225.52

====

In this section, each of the compounds is paired with its reported molar heat capacity at constant pressure.
TEST_DESCRIPTION: molar heat capacity at constant pressure
DETAILS: 252.15 K; 101.33 kPa; Crystal; Small sample (50 mg) DSC
Quick note: give the figure in J/K/mol, leave out the unit.

OC[C@@H](O)[C@H](O)[C@@H](O)CO	176.09
O[C@H]1[C@H](O)[C@@H](O)[C@H](O)[C@@H](O)[C@H]1O [cis-1,2,3,5-trans-4,6-cyclohexanehexol]	182.55

Reported molar heat capacity at constant pressure of OC[C@@H](O)[C@@H](O)[C@H](O)[C@H](O)CO : 195.91

Reported molar heat capacity at constant pressure of OC[C@@H](O)C(O)[C@H](O)CO : 168.72

Reported molar heat capacity at constant pressure of OC[C@H](O)C(O)[C@@H](O)CO [L-(-)-arabitol] : 173.86

Reported molar heat capacity at constant pressure of OC[C@@H](O)[C@@H](O)CO : 139.85

====

TEST_DESCRIPTION: molar heat capacity at constant pressure
DETAILS: 95 K; 101.33 kPa; Crystal; relaxation calorimetry
± gives the expanded uncertainty stated by the source.
READOUT_TYPE: molar heat capacity at constant pressure
Param answer (str): number followed by unit.

A selection of reference data follows.
OC[C@@H](O)[C@@H](O)CO	60.72 ± 3.7 J/K/mol
OC[C@@H](O)[C@H](O)[C@@H](O)CO	72.72 ± 4.5 J/K/mol
OC[C@@H](O)C(O)[C@H](O)CO	74.17 ± 4.5 J/K/mol
OC[C@@H](O)[C@@H](O)[C@H](O)[C@H](O)CO	83.75 ± 5.1 J/K/mol
OC[C@H](O)C(O)[C@@H](O)CO [L-(-)-arabitol]	74.53 ± 4.6 J/K/mol

Reported molar heat capacity at constant pressure of O[C@H]1[C@H](O)[C@@H](O)[C@H](O)[C@@H](O)[C@H]1O [cis-1,2,3,5-trans-4,6-cyclohexanehexol] : 67.25 ± 4.1 J/K/mol
